test system: HepG2; experiment: cell viability relative to DMSO; higher = less toxic; settings: 72 h; 10 nM
observation_type: cell viability (%)
State the answer as a number, implicitly in %.

## Input May I ask what cell viability has been recorded for CCN(CC)CCOC(=O)C(c1ccccc1)C1CCCCC1 (configuration not stated) ?
## Output 87.5

## Input May I ask what cell viability has been recorded for CN1C(=O)/C(=C2/C(=O)Nc3ccccc32)c2ccccc21 ?
## Output 101

---

# maps each entry to its cell viability
system: U2OS; assay: cell viability relative to DMSO; higher = less toxic; settings: 72 h; 1 nM
State the answer as a number, implicitly in %.

- compound: "COC(=O)/C=C/C(=O)OCCN1C(=O)CCC1=O [diroximel-fumarate]"
  cell viability (%): 101
- compound: "C=CCN1CC[C@]23c4c5ccc(O)c4O[C@H]2[C@@H](OCCOCCOCCOCCOCCOCCOCCOC)CC[C@@]3(O)[C@H]1C5"
  cell viability (%): 93.9

## Input Item: CCC(=O)O[C@@H]1CC(=O)O[C@H](C)C/C=C/C=C/[C@H](OC(C)=O)[C@H](C)C[C@H](CC=O)[C@H](O[C@@H]2O[C@H](C)[C@@H](O[C@H]3C[C@@](C)(OC(C)=O)[C@@H](OC(=O)CC)[C@H](C)O3)[C@H](N(C)C)[C@H]2O)[C@H]1OC Test system: U2OS Read-out: cell viability Value: ?
## Output 96.9

meta.source: the supplement of paper PMC13380429
